Field: EC50. Provide a value for each of the binders that follow.
Biological target: T1, human LIV-1 (human, UniProt Q13433 29-755)
T1 construct: whole, on cells; also called H-LIV1
T1 sequence (looked up): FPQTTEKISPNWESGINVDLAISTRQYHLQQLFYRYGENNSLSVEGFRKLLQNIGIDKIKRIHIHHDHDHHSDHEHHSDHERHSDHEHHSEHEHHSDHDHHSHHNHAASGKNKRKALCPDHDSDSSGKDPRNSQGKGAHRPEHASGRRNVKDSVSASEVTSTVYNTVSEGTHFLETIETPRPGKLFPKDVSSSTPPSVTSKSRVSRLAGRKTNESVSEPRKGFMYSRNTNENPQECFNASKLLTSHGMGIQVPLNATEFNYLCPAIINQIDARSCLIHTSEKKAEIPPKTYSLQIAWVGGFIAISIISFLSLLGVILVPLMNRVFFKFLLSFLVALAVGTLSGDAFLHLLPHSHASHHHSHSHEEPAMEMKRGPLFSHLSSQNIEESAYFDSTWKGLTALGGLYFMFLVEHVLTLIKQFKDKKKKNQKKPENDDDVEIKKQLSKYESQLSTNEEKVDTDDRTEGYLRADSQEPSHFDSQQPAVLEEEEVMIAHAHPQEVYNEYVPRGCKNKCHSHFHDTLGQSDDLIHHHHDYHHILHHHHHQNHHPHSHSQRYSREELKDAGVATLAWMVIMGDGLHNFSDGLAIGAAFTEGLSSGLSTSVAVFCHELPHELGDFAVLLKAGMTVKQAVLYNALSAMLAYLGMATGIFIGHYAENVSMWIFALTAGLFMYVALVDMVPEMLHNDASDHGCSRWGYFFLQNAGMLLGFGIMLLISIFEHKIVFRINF
Assay: FACS, BT20/H_LIV-1 Low cells
A number alone suffices; assume nM.

[ask] Look up EC50 for this binder: 290F10G10.z2-Eribulin (antibody, V domains shown, Eribulin drug moiety conjugated; site and chain not stated) VH: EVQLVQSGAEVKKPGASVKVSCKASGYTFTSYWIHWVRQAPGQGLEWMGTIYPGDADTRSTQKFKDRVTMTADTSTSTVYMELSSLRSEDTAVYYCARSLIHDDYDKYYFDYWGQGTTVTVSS VL: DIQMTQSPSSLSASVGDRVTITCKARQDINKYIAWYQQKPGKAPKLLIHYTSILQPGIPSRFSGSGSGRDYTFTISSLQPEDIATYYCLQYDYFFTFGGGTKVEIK
[reply] 1.14

[ask] For the binder 5D6B10.z7-Eribulin (antibody, V domains shown, Eribulin drug moiety conjugated; site and chain not stated, Antibody-drug conjugate of 5D6B10.z7; human gamma 1/kappa) VH: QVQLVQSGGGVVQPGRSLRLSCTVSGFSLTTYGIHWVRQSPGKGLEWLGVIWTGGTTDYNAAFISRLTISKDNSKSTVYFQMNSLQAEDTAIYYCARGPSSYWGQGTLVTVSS VL: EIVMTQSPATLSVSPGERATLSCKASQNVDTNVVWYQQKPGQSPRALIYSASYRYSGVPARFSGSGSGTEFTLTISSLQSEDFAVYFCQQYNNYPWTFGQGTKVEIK , what EC50 is on record?
[reply] 0.5

[ask] Param item = 290F10G10.p1.Z2 (antibody, V domains shown, also called 290F10G10.z2; LM-001) VH: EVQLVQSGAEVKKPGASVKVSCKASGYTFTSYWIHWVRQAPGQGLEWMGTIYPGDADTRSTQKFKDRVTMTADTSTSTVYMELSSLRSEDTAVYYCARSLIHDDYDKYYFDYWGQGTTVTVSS VL: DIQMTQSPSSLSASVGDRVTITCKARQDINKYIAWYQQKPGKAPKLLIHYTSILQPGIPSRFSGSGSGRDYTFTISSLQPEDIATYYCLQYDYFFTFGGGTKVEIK ; retrieve measured EC50.
[reply] 1.43
